assay: in vivo; conditions: CD-1, mouse, iv, 5 mg/kg
Assay Metric: Vd at 24 h (L/kg)

[[record]]
compound_structure = "C=CC(=O)Nc1ccc(/C=C/c2nc(Nc3cc(C(C)C)[nH]n3)cc(N3CCN(C)CC3)n2)cc1"
result_unit = "L/kg"
obs_value = 3.1


* * *

// half-life at 2 h, 2 µM lookup, one value per entry
assay: in vitro; conditions: human, blood
Assay Metric: half-life at 2 h, 2 µM (h)

[[record]]
compound_structure = "C=CC(=O)Nc1ccc(CCc2nc(Nc3cc(C)[nH]n3)cc(N3CCN(C)CC3)n2)cc1"
assay_metric = "half-life at 2 h, 2 µM"
obs_value = 4.12

[[record]]
compound_structure = "C=CC(=O)N1CCC2(CCN(c3nc(Nc4cc(C(C)C)[nH]n4)cc(N4CCN(C)CC4)n3)CC2)C1"
assay_metric = "half-life at 2 h, 2 µM"
obs_value = 3.03

[[record]]
compound_structure = "C=CC(=O)Nc1ccc(/C=C/c2nc(Nc3cc(C(C)C)[nH]n3)cc(N3CCN(C)CC3)n2)cc1"
assay_metric = "half-life at 2 h, 2 µM"
obs_value = 2.02


* * *

// Papp A→B at 2 h lookup, one value per entry
experiment: in vitro; conditions: human, Caco-2
Assay Metric: Papp A→B at 2 h (×10⁻⁶ cm/s)

[[record]]
compound_structure = "C=CC(=O)N1CCC2(CCN(c3nc(Nc4cc(C(C)C)[nH]n4)cc(N4CCN(C)CC4)n3)CC2)C1"
assay_metric = "Papp A→B at 2 h"
result_unit = "×10⁻⁶ cm/s"
obs_value = 0.2

[[record]]
compound_structure = "C=CC(=O)Nc1ccc(CCc2nc(Nc3cc(C)[nH]n3)cc(N3CCN(C)CC3)n2)cc1"
assay_metric = "Papp A→B at 2 h"
result_unit = "×10⁻⁶ cm/s"
obs_value = 0.3

[[record]]
compound_structure = "C=CC(=O)Nc1ccc(/C=C/c2nc(Nc3cc(C(C)C)[nH]n3)cc(N3CCN(C)CC3)n2)cc1"
assay_metric = "Papp A→B at 2 h"
result_unit = "×10⁻⁶ cm/s"
obs_value = 0.1


* * *

test: in vivo; settings: CD-1, mouse, po, 10 mg/kg
Assay Metric: AUC at 24 h (ng·h/mL)

[[record]]
compound_structure = "C=CC(=O)Nc1ccc(/C=C/c2nc(Nc3cc(C(C)C)[nH]n3)cc(N3CCN(C)CC3)n2)cc1"
result_unit = "ng·h/mL"
obs_value = 400


* * *

assay: in vitro; settings: mouse, blood
Assay Metric: half-life at 2 h, 2 µM (h)

[[record]]
compound_structure = "C=CC(=O)Nc1ccc(CCc2nc(Nc3cc(C)[nH]n3)cc(N3CCN(C)CC3)n2)cc1"
assay_metric = "half-life at 2 h, 2 µM"
obs_value = 2.62

[[record]]
compound_structure = "C=CC(=O)N1CCC2(CCN(c3nc(Nc4cc(C(C)C)[nH]n4)cc(N4CCN(C)CC4)n3)CC2)C1"
assay_metric = "half-life at 2 h, 2 µM"
obs_value = 2.73

[[record]]
compound_structure = "C=CC(=O)Nc1ccc(/C=C/c2nc(Nc3cc(C(C)C)[nH]n3)cc(N3CCN(C)CC3)n2)cc1"
assay_metric = "half-life at 2 h, 2 µM"
obs_value = 1.9


* * *

experiment: in vivo; conditions: CD-1, mouse, po, 10 mg/kg
Assay Metric: bioavailability at 24 h (%)

[[record]]
compound_structure = "C=CC(=O)Nc1ccc(/C=C/c2nc(Nc3cc(C(C)C)[nH]n3)cc(N3CCN(C)CC3)n2)cc1"
result_unit = "%"
obs_value = 21

